- target_of_assay: recombinant human GSK3β (Homo sapiens, UniProt P49841)
- Sequence (P49841 whole entry): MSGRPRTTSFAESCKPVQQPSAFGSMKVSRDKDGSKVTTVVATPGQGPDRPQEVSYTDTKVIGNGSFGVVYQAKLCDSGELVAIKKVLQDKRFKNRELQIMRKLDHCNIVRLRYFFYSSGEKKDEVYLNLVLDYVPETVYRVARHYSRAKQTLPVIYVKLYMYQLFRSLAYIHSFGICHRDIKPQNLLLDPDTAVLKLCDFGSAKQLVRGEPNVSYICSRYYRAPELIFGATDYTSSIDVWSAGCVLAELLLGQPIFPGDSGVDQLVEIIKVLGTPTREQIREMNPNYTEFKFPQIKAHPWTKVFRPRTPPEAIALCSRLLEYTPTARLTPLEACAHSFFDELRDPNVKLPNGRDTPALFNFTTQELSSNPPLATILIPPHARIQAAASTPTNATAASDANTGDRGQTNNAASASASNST
- test_protocol: GSK3β Scintillation Proximity Assay (ATP competition)
- assay_conditions: SPA, 1 μM ATP, 1 μM biotinylated peptide substrate; Ki calculated with Km of ATP 20 μM
pKi: −log10 of the molar value. Counter-ions that a name gives are not always drawn.
measure_name: pKi

A: COCCCNC(=O)c1c(F)cnc2[nH]c(-c3ccc(CN4CCOCC4)cc3)nc12 [Example 21, hydrochloride]
B: COCCCNC(=O)c1c(Cl)cnc2[nH]c(-c3ccc(CN4CCOCC4)cc3)nc12
C: COCCCNC(=O)c1c(Br)cnc2[nH]c(-c3ccc(CN4CCOCC4)cc3)nc12
## Input Rank the listed compounds by pKi, largest first. I'd appreciate it if you listed the labels in the requested order.
## Output C, A, B
(C: 6.41, A: 6.11, B: 5.85)
